assay: Cytotoxicity against human CEM-SS cells by XTT assay; format: cell-based
measurement_name: CC50

> print(dat)
                                   molecule  measurement.name  result
1  CN(O)C(=O)c1cc2c(CN3CCC[C@H]3C(N)=O)cn(Cc3ccc(F)cc3)c2cn1              CC50  216 µM

Given `CN1CCN(Cc2cn(Cc3ccc(F)cc3)c3cnc(C(=O)N(C)O)cc23)CC1` , state its recorded CC50.
> 224 µM

Given `CN(O)C(=O)c1cc2c(COC3CCOCC3)cn(Cc3ccc(F)cc3)c2cn1` , state its recorded CC50.
> 100 µM

Given `CN(O)C(=O)c1cc2c(C(=O)N3CCC[C@@H]3CO)cn(Cc3ccc(F)cc3)c2cn1` , state its recorded CC50.
> 32 µM

Given `CN(O)C(=O)c1cc2ccn(Cc3ccc(F)cc3)c2cn1` , state its recorded CC50.
135 µM

Given `CN(O)C(=O)c1cc2c(CO)cn(Cc3ccc(F)cc3)c2cn1` , state its recorded CC50.
> 266 µM

Given `CCOCCOCc1cn(Cc2ccc(F)cc2)c2cnc(C(=O)N(C)O)cc12` , state its recorded CC50.
81 µM

Given `COCc1cn(Cc2ccc(F)cc2)c2cnc(C(=O)N(C)O)cc12` , state its recorded CC50.
266 µM

Given `CN(O)C(=O)c1cc2c(CCCN3CCOCC3)cn(Cc3ccc(F)cc3)c2cn1` , state its recorded CC50.
> 10 µM

Given CN(O)C(=O)c1cc2c(CN3CCC(O)C3)cn(Cc3ccc(F)cc3)c2cn1 (stereo not drawn) , state its recorded CC50.
> 100 µM

----------
assay: Blood clearance in human; type: ADME, organism-based; details: whole blood
measurement_name: clearance (mL/min/kg)
Number in mL/min/kg, nothing else.

Given `CN(O)C(=O)c1cc2c(CN3CCC[C@H]3C(N)=O)cn(Cc3ccc(F)cc3)c2cn1` , state its recorded clearance.
5.5

----------
experiment: Half life in dog at 1 mg/kg, iv and 5 mg/kg, po; format: ADME, organism-based, Canis lupus familiaris; details: in vivo
Quick list: half-life per entry.
Number in h, nothing else.

> print(dat)
                            chemical.smiles  quantity.unit  number
1  CN(O)C(=O)c1cc2c(CN3CCC[C@H]3C(N)=O)cn(Cc3ccc(F)cc3)c2cn1              h     6.2

Pending molecule:
Given `CN(O)C(=O)c1cc2c(CN3CCNC(=O)C3)cn(Cc3ccc(F)cc3)c2cn1` , state its recorded half-life.
1.27

----------
test: Metabolic stability in human hepatocyte assessed as extraction ratio at 4 hrs; type: ADME, cell-based; conditions: hepatocytes
measurement_name: hepatic extraction ratio at 4 h
Could you keep your reply to the number by itself?

> print(dat)
                                   compound                 measurement.name  number
1  CN(O)C(=O)c1cc2c(CN3CCNC(=O)C3)cn(Cc3ccc(F)cc3)c2cn1  hepatic extraction ratio at 4 h     0.3
2  CN1CCN(Cc2cn(Cc3ccc(F)cc3)c3cnc(C(=O)N(C)O)cc23)CC1  hepatic extraction ratio at 4 h    0.55
3  COCCOCCCc1cn(Cc2ccc(F)cc2)c2cnc(C(=O)N(C)O)cc12  hepatic extraction ratio at 4 h    0.97
4  CN(O)C(=O)c1cc2c(CN3CCC(O)C3)cn(Cc3ccc(F)cc3)c2cn1 (centres undefined)  hepatic extraction ratio at 4 h    0.55

Given `COCCOCc1cn(Cc2ccc(F)cc2)c2cnc(C(=O)N(C)O)cc12` , state its recorded hepatic extraction ratio at 4 h.
0.51

Given `CN(O)C(=O)c1cc2c(CCCO)cn(Cc3ccc(F)cc3)c2cn1` , state its recorded hepatic extraction ratio at 4 h.
1

Given `CC(C)NC(=O)c1cn(Cc2ccc(F)cc2)c2cnc(C(=O)N(C)O)cc12` , state its recorded hepatic extraction ratio at 4 h.
0.25

Given `CN(O)C(=O)c1cc2c(COC3CCOCC3)cn(Cc3ccc(F)cc3)c2cn1` , state its recorded hepatic extraction ratio at 4 h.
0.86

Given `COCc1cn(Cc2ccc(F)cc2)c2cnc(C(=O)N(C)O)cc12` , state its recorded hepatic extraction ratio at 4 h.
1

Given `CCOCCOCc1cn(Cc2ccc(F)cc2)c2cnc(C(=O)N(C)O)cc12` , state its recorded hepatic extraction ratio at 4 h.
0.57

Given `CN(O)C(=O)c1cc2c(CO)cn(Cc3ccc(F)cc3)c2cn1` , state its recorded hepatic extraction ratio at 4 h.
1

Given `CN(O)C(=O)c1cc2c(CCCN3CCOCC3)cn(Cc3ccc(F)cc3)c2cn1` , state its recorded hepatic extraction ratio at 4 h.
0.98

Given `CN(O)C(=O)c1cc2c(C(=O)NCCN3CCOCC3)cn(Cc3ccc(F)cc3)c2cn1` , state its recorded hepatic extraction ratio at 4 h.
0.25

Given `CN(O)C(=O)c1cc2c(C(=O)N3CCC[C@@H]3CO)cn(Cc3ccc(F)cc3)c2cn1` , state its recorded hepatic extraction ratio at 4 h.
0.2
